test-target: T1, human CD16A-Fc^48R/158V fusion protein (human, UniProt P08637 17-208, limits assumed)
T1 construct: Secreted soluble fusion made in HEK-293 cells; also called CD16-Fc; CD16A Fc-fusion protein; not shown: Fc portion of human IgG1
T1 sequence (P08637 17-208 L66R/F176V limits assumed): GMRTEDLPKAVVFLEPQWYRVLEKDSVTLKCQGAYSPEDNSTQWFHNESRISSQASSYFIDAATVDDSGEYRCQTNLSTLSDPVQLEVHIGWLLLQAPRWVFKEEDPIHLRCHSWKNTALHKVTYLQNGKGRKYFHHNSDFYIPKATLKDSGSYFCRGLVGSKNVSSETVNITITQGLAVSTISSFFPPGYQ
run-description: SPR, BIAcore 2000, CD16A-Fc immobilized on CM5, 1:1 Langmuir
property-measured: kon (M⁻¹ s⁻¹)
Could you give me the number in M⁻¹ s⁻¹? Just the number is fine.

Look up kon of affinity matured anti-CD16A scFv 3-LB6 (scFv, IMAC-purified from pSKK2) scFv: EVQLVQSGAEVKKPGESLKVSCKASGYTFTSYYMHWVRQAPGQGLEWMGIINPSGGSTSYAQKFQGRVTMTRDTSTSTVYMELSSLRSEDTAVYYCARGSAYYYDFADYWGQGTLVTVSSGSASAPTLKLEEGEFSEARVQAVLTQPPSVSVAPGQTARIPCEGNNIGSKNVHWYRQKPGQVPVLVMYDDSDRPSGIPERFSGSNSGNTATLTISGTQAMDEADYYCQVWDNYSVLFGGGTKLTVLGQPKAAPSVTLFPPSAAAGSEQKLISEEDLNSHHHHHH and report it.
54800

Look up kon of human anti-CD16A scFv 50NI (scFv, also called clone 50NI; parental clone) scFv: EVQLVQSGAEVKKPGESLKVSCKASGYTFTSYYMHWVRQAPGQGLEWMGIINPSGGSTSYAQKFQGRVTMTRDTSTSTVYMELSSLRSEDTAVYYCARGSAYYYDFADYWGQGTLVTVSSGSASAPTLKLEEGEFSEARVSYELMQPPSVSVSSGQTASIPCSGDKLEEKYVSWYQQRPGQSPVLVIYQDNKRPSGIPERFSGSNSGNTATLTISGTQAMDEADYYCQVWDNYSVLFGGGTKLTVLGQPKAAPSVTLFPPSAAAGSEQKLISEEDLNSHHHHHH and report it.
17600

Look up kon of affinity matured anti-CD16A scFv 3-LB5 (scFv, IMAC-purified from pSKK2; oligomeric state not analysed) scFv: EVQLVQSGAEVKKPGESLKVSCKASGYTFTSYYMHWVRQAPGQGLEWMGIINPSGGSTSYAQKFQGRVTMTRDTSTSTVYMELSSLRSEDTAVYYCARGSAYYYDFADYWGQGTLVTVSSGSASAPTLKLEEGEFSEARVSYELTQPPSVAVAPGKTARITCGGNNIGSKNVHWYQQKPGQAPVLVIYRDSNRPSGIPERFSGSNSGNTATLTISRAQAGDEADFYCQVWDNYIVLFGGGTKLTVLGQPKAAPSVTLFPPSAAAGSEQKLISEEDLNSHHHHHH and report it.
73300

Look up kon of affinity matured anti-CD16A scFv 4-LS14 (scFv, IMAC-purified from pSKK2) scFv: EVQLVQSGAEVKKPGESLKVSCKASGYTFTSYYMHWVRQAPGQGLEWMGIINPSGGSTSYAQKFQGRVTMTRDTSTSTVYMELSSLRSEDTAVYYCARGSAYYYDFADYWGQGTLVTVSSGSASAPTLKLEEGEFSEARVSYELTQPPSVSVTPGQTATITCGANDIGKRNVHWYQQRPGQSPVLVIYQDNKRPSGIPERFSGSNSGNTATLTISGTQAMDEADYYCQVWDNYSVLFGGGTKLTVLGQPKAAPSVTLFPPSAAAGSEQKLISEEDLNSHHHHHH and report it.
50900

Look up kon of affinity matured anti-CD16A scFv 4-LS21 (scFv, IMAC-purified from pSKK2) scFv: EVQLVQSGAEVKKPGESLKVSCKASGYTFTSYYMHWVRQAPGQGLEWMGIINPSGGSTSYAQKFQGRVTMTRDTSTSTVYMELSSLRSEDTAVYYCARGSAYYYDFADYWGQGTLVTVSSGSASAPTLKLEEGEFSEARVQPVLTQPSSVSVAPGQTATISCGGHNIGSKNVHWYQQRPGQSPVLVIYQDNKRPSGIPERFSGSNSGNTATLTISGTQAMDEADYYCQVWDNYSVLFGGGTKLTVLGQPKAAPSVTLFPPSAAAGSEQKLISEEDLNSHHHHHH and report it.
56000

Look up kon of affinity matured anti-CD16A scFv 3-LB3 (scFv, IMAC-purified from pSKK2) scFv: EVQLVQSGAEVKKPGESLKVSCKASGYTFTSYYMHWVRQAPGQGLEWMGIINPSGGSTSYAQKFQGRVTMTRDTSTSTVYMELSSLRSEDTAVYYCARGSAYYYDFADYWGQGTLVTVSSGSASAPTLKLEEGEFSEARVSYELTQPLSESVAQGQTARITCGGNNIESRNVHWYQQKPGQAPVLVIYRDNNRPSGIPERFSGSNSGNMATLTISRAQAGDAADYYCQVWDNYTVLFGGGTKLTVLGQPKAAPSVTLFPPSAAAGSEQKLISEEDLNSHHHHHH and report it.
21600

Look up kon of affinity matured anti-CD16A scFv 3-LS49 (scFv, IMAC-purified from pSKK2) scFv: EVQLVQSGAEVKKPGESLKVSCKASGYTFTSYYMHWVRQAPGQGLEWMGIINPSGGSTSYAQKFQGRVTMTRDTSTSTVYMELSSLRSEDTAVYYCARGSAYYYDFADYWGQGTLVTVSSGSASAPTLKLEEGEFSEARVQPVLTQPLSVSVAPGQTARITCGGNNIGSKNVHWYQQKPGQAPVLVIYRDSSRPSGIPERLSGSNSGDTATLTISRAQAGDEADYYCQVWDDYIVVFGGGTKLTVLGQPKAAPPVTLFPPSAAAGSEQKLISEEDLNSHHHHHH and report it.
29300
